Recorded values, source paper PMC12136037.

measurement.target: ~100 representative kinases (Homo sapiens)
Construct: Recombinant protein kinase domains with a concentration of 2 μM
Sequence (P54762 18-984): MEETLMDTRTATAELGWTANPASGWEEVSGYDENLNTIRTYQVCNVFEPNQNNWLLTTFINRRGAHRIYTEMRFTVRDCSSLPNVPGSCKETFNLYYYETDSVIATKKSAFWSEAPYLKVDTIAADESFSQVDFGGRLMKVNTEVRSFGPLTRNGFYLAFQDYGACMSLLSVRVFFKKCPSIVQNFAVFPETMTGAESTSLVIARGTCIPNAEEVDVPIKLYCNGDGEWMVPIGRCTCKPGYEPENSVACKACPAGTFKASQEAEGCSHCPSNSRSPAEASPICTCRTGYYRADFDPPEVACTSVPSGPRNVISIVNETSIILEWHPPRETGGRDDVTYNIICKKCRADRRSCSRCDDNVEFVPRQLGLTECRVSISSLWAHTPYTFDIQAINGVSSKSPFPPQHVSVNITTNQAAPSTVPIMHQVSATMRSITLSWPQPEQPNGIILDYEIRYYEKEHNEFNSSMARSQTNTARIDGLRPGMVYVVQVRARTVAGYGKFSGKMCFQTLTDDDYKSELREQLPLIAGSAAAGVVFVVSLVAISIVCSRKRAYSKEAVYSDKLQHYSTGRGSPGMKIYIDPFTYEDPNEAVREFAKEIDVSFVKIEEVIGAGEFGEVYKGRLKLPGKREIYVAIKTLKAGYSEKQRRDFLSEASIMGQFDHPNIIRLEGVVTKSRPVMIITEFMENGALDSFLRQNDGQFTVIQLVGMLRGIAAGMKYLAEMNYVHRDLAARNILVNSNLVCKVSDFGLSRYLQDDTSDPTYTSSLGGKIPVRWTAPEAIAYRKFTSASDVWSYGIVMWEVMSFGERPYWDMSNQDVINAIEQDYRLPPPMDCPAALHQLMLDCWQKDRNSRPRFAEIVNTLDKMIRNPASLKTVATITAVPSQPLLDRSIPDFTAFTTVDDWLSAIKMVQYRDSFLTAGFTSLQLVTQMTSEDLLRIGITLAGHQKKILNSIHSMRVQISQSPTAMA
test: DSF 100 kinase selectivity screen;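 note: compound tested at 20 µM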
Assay type: binding
condition.summary: Protein EPHB1; average of three replicates
dTm by entry:

{"compound": "Cc1ccc(C(=O)Nc2ccc(CN3CCN(C)CC3)c(C(F)(F)F)c2)cc1C#Cc1cnc2[nH]ncc2c1 [GZD-824, reference compound]", "dTm, K": 14.98}
{"compound": "CCSc1nc(NC)c2c(-c3cccc(NC(=O)Nc4cc(C(C)(C)C)nn4-c4ccc(C)cc4)c3)c[nH]c2n1 [Compound 32]", "dTm, K": 0.21}
{"compound": "O=C(Nc1cccc(-c2c[nH]c3ncnc(N4CCOCC4)c23)c1)c1cccn(-c2ccc(F)cc2)c1=O [Compound 4]", "dTm, K": 2.81}
{"compound": "C[C@@H]1CN(c2cc(-c3n[nH]c4ccc(OC5(C)CC5)cc34)ncn2)C[C@H](C)O1 [MLi2]", "dTm, K": -0.37}
{"compound": "CC(=O)N1CCN(c2nc(Cl)nc3[nH]cc(-c4cccc(NC(=O)Nc5cc(C(C)(C)C)nn5-c5ccc(C)cc5)c4)c23)CC1 [Compound 31]", "dTm, K": 0.39}
{"compound": "Cc1cc(NC(=O)C2(C(=O)Nc3ccc(F)cc3)CC2)cc(-c2c[nH]c3ncnc(N4CCOCC4)c23)c1 [Compound 6]", "dTm, K": 1.49}
